The reported measurements were obtained from the supplement of paper PMC7125110.

B1: glmS ribozyme (parent)
chain: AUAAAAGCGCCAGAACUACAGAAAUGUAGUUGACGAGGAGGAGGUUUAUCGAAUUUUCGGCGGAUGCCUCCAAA

variants of: B1; assay: self-cleavage kobs at 40 uM GlcN6P; higher = faster cleavage; RNA array; conditions: with glucosamine-6-phosphate
Fewer inactive variants are shown than the library holds.
OBSERVABLE: self-cleavage kobs at 40 uM GlcN6P

[[record]]
monomer_sequence = "AUAAAAGCGCCAGAACUACAGAAAUGUAGUUGACGAGGGGGAGGUUCAUCGAAUUUUCGGCGGAUGCCUCCAAA"
data_value = "0.000381 s⁻¹"

[[record]]
monomer_sequence = "AUAAAAGCGCCAGAACUACAGAAAUGUAGUUGACGAGGAGGAGGUUUAUCGAAUUUGCGGCGGAAGCCUCCAAA"
data_value = "< 1e-05 s⁻¹"

[[record]]
monomer_sequence = "AUAAACGCGCCAGAACUACAGAAAUGUAGUUGACGAGGAGGAGGUUUAUCAAAUUUUCGGCGGAUGCCUCCAAA"
data_value = "< 1e-05 s⁻¹"

[[record]]
monomer_sequence = "AUAAAAGCGCCUGAACUACAGAAAUGUAGUUGACGAGGAGGAGGUUUAUCGAUUUUUCGGCGGAUGCCUCCAAA"
data_value = "0.00177 s⁻¹"

[[record]]
monomer_sequence = "AUAAAAGCGCCAGAACUACAGAAAUGUAGUUGACGAGGAUGAGGUUUAUCGAAGUUUCGGCGGAUGCCUCCAAA"
data_value = "0.000133 s⁻¹"


Sample AUAAAAGCGCCAGAACUACAGAAAUGUAGUUGACGAGGAGUAGGUUUAUCGAAUUUUCGGCGGAUGCAUCCAAA ; self-cleavage kobs at 40 uM GlcN6P observed: < 1e-05 s⁻¹

Sample AUAAAAGCCCUAGAACUACAGAAAUGUAGUCGACGGGAAGGAGGUUUAUGGAAUUUUCGGCGGAUGCCGGCAAA ; self-cleavage kobs at 40 uM GlcN6P observed: 0.00075 s⁻¹

Sample AUAAAAGCGCCAGUACUACAGAAAUGUAGUUGACGAGGAAGAGGUUUAUCUAAUUUUCGGCGGAUGCCUCCAAA ; self-cleavage kobs at 40 uM GlcN6P observed: < 1e-05 s⁻¹

Sample AUAAAAGCGCCAGAACUACAGAAAUGUAGUUGACGGGGAGGAGGUUUAUCGAAUCUUCGGCGGAUGUCUCCAAA ; self-cleavage kobs at 40 uM GlcN6P observed: < 1e-05 s⁻¹

Sample AUAAAAGCGCCAGAACUACAGAAAUGUAGUUGACGAGGAGGAGGUUAAUCGAAUUCUCGGCGGAUGCCUGCAAA ; self-cleavage kobs at 40 uM GlcN6P observed: < 1e-05 s⁻¹

Sample AUAAAAGUGCCAGAACUACAGAAAUGUAGUUGACGAGGAGGAGGGUUAUCGAAUUUUCGGCGGAUGCCUCCAAA ; self-cleavage kobs at 40 uM GlcN6P observed: < 1e-05 s⁻¹
